Test target: Human CD33 S128N (human, UniProt P20138 18-259)
Sequence (P20138 18-259 S128N): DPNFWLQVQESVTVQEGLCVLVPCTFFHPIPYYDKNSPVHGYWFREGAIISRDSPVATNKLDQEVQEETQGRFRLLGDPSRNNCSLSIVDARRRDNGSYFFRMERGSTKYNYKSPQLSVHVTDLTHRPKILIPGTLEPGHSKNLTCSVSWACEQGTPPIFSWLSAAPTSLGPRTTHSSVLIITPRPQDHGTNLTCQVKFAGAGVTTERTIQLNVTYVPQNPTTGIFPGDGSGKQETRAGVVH
Method description: SPR captured Fab
Recorded endpoint: log10(kon) (log10 of the value in M⁻¹ s⁻¹)

# Binder, Recorded endpoint, Result number
rows = [
    ("ADI-11812 Fab (Fab, V domains shown, Fab fragment; also called Ab24) VH: QVQLVQSGAEVKKPGASVKVSCKASGYTFEIYYMHWVRQAPGQGLEWMGIINPSSGSTVYAQKFQGRVTMTRDTSTSTVYMELSSLRSEDTAVYYCARGAGYDDEDMDVWGKGTTVTVSS VL: DIQMTQSPSSVSASVGDRVTITCRASQGIDSWLAWYQQKPGKAPKLLIYAASSLQSGVPSRFSGSGSGTDFTLTISSLQPEDFATYYCQQAHSYPLTFGGGTKVEIK", "log10(kon)", 5.75),
    ("ADI-10157 Fab (Fab, V domains shown, Fab fragment; also called Ab13) VH: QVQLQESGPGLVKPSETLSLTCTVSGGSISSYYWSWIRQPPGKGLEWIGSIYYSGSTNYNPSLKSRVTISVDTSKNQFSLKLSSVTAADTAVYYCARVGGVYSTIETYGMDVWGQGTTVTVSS VL: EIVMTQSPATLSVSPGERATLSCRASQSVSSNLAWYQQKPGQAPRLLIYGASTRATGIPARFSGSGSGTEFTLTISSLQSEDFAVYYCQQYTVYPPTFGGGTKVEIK", "log10(kon)", 4.75),
    ("ADI-11828 Fab (Fab, V domains shown, Fab fragment; also called Ab27) VH: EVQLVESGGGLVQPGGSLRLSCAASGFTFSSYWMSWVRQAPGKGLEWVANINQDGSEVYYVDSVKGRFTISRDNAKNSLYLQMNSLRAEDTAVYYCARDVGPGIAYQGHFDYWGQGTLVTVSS VL: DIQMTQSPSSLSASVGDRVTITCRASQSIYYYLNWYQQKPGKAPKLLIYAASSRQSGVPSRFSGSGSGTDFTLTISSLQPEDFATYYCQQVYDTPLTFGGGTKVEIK", "log10(kon)", 6.14),
    ("ADI-11825 Fab (Fab, V domains shown, Fab fragment; also called Ab25) VH: EVQLVESGGGLVQPGGSLRLSCAASGFTFGGYWMSWVRQAPGKGLEWVANINQDGSEEYYVDSVKGRFTISRDNAKNSLYLQMNSLRAEDTAVYYCAREANYYGNVGDDYWGQGTLVTVSS VL: DIQMTQSPSSLSASVGDRVTITCRASQSIYNYLNWYQQKPGKAPKLLIYAASNLHSGVPSRFSGSGSGTDFTLTISSLQPEDFATYYCQQAFHVPITFGGGTKVEIK", "log10(kon)", 6.32),
    ("ADI-11826 Fab (Fab, V domains shown, Fab fragment; also called Ab26) VH: EVQLVESGGGLVQPGGSLRLSCAASGFTFPGYWMSWVRQAPGKGLEWVANINQDGSEVYYVDSVKGRFTISRDNAKNSLYLQMNSLRAEDTAVYYCAREANYYGNVGDDYWGQGTLVTVSS VL: DIQMTQSPSSLSASVGDRVTITCRASQSIYNYLNWYQQKPGKAPKLLIYAASSTQSGVPSRFSGSGSGTDFTLTISSLQPEDFATYYCQQAFHVPITFGGGTKVEIK", "log10(kon)", 6.34),
]
